Measured values drawn from patent US10889573B2 for this set.

Experiment: log P by HPLC on reversed phase columns (Method L0)
Settings: HPLC on reversed phase columns, Method L0
quantity: logP (Method L0)
Number only, no unit.

Worked set:
{"structureString": "CON(C)c1c(C(=O)N[C@H]2CCOc3ccccc32)cnc2c(-c3cc(Cl)cc(Cl)c3)cccc12", "logP (Method L0)": 4.87}
{"structureString": "CN(c1c(C(=O)N[C@H]2CCOc3ccccc32)cnc2c(-c3cccc(Cl)c3Cl)cccc12)C1CC1", "logP (Method L0)": 2.8}
{"structureString": "CC(C)(C)OC(=O)CNc1c(C(=O)N[C@H]2CCOc3ccccc32)cnc2c(-c3cc(Cl)cc(Cl)c3)cccc12", "logP (Method L0)": 3.3}

// moving on: another record for logP (Method L0)
Dear colleague, I am looking for the recorded logP (Method L0) of the following compound: "CN(c1c(C(=O)N[C@H]2CCOc3ccccc32)cnc2c(-c3cc(Cl)cc(Cl)c3)cccc12)C1CC1"
3.81

---

Below, each entry is listed alongside its reported EC50.
Test system: Dirofilaria immitis microfilariae
Experiment: In vitro assay 3: Dirofilaria immitis microfilariae (DIROIM L1), motility
Settings: 72 h, read-out: EC50 (reduction of motility), 72 h incubation

Before answering, review these 3 worked examples.
{"compound": "O=C(N[C@H]1CCOc2ccccc21)c1cnc2c(-c3c(F)cccc3F)c(F)ccc2c1N1CCOCC1", "targetOrTestSystem": "Dirofilaria immitis microfilariae", "EC50": "< 0.1 µg/mL"}
{"compound": "COC(=O)c1cc(-c2cccc3c(N4CCOCC4)c(C(=O)N[C@H]4CCOc5ccccc54)cnc23)c2ocnc2c1", "targetOrTestSystem": "Dirofilaria immitis microfilariae", "EC50": "< 1 µg/mL"}
{"compound": "Cn1cc(-c2c(C(=O)N[C@H]3CCOc4ccccc43)cnc3c(-c4cc(Cl)cc(Cl)c4)cccc23)c(=O)n(C)c1=O", "targetOrTestSystem": "Dirofilaria immitis microfilariae", "EC50": "< 1 µg/mL"}

In the following, a different compound is considered.
For "O=C(N[C@H]1CCOc2ccccc21)c1cnc2c(-c3cc(F)cc(Cl)c3)c(F)ccc2c1N1CCOCC1" , what is its reported EC50?
< 0.1 µg/mL

---

Tested on: Haemonchus contortus
Details: 120 h, read-out: activity (larval mortality)
Listing of entries alongside the reported mortality at 4 ppm.
Output spec: scalar in %, unitless text.

{"compound": "CN(CC(=O)O)c1c(C(=O)N[C@H]2CCOc3ccccc32)cnc2c(-c3cc(Cl)cc(Cl)c3)cccc12 [Example 150]", "mortality at 4 ppm, %": 80}
{"compound": "CC(C)c1c(C(=O)N[C@H]2CCOc3ccccc32)cnc2c(-c3cccc(C(F)(F)F)c3)cccc12 [Example 411]", "mortality at 4 ppm, %": 100}
{"compound": "CN(C)c1c(C(=O)N[C@H]2CCOc3ccccc32)cnc2c(-c3cc(Cl)ncc3Cl)cccc12 [Example 415]", "mortality at 4 ppm, %": 90}
{"compound": "COc1ccc(-c2cc(Cl)cc(Cl)c2)c2ncc(C(=O)N[C@H]3CCOc4ccccc43)c(N(C)C)c12 [Example 504]", "mortality at 4 ppm, %": 100}
{"compound": "O=C(N[C@H]1CCOc2ccccc21)c1cnc2c(-c3cccc(Cl)c3Cl)cccc2c1N1CCOCC1 [Example 52]", "mortality at 4 ppm, %": 100}

Find the recorded mortality at 4 ppm belonging to CC(C)c1c(C(=O)N[C@H]2CCOc3ccccc32)cnc2c(-c3cccc(C(F)(F)F)c3F)cccc12 [Example 408] and report it.
90

What does the data say about its mortality at 4 ppm? Entry: O=C(N[C@H]1CCOc2ccccc21)c1cnc2c(-c3cc(Cl)cc(Cl)c3)cccc2c1N1CCOCC1 [Example 17]
100

Fill in: mortality at 4 ppm of O=C(N[C@H]1CCOc2ccccc21)c1cnc2c(-c3cccc(Cl)c3F)cccc2c1N1CCOCC1 [Example 226] is ___
90

# query: mortality at 4 ppm of entry CCOc1c(C(=O)N[C@H]2CCOc3ccccc32)cnc2c(-c3cc(Cl)cc(Cl)c3)cccc12 [Example 341]
80

// mortality at 4 ppm lookup, key: COC(=O)[C@H]1CCN(c2c(C(=O)N[C@H]3CCOc4ccccc43)cnc3c(-c4cc(Cl)cc(Cl)c4)cccc23)C1 [Example 281]
80

What measured mortality at 4 ppm goes with CCc1c(C(=O)N[C@H]2CCOc3ccccc32)cnc2c(-c3cc(Cl)cc(Cl)c3Cl)cccc12 [Example 573] ?
100

Which mortality at 4 ppm reading was recorded for the compound O=C(N[C@H]1CCOc2ccccc21)c1cnc2c(-c3cc(Cl)cc(Cl)c3)cccc2c1N1CC(F)(F)C1 [Example 394] ?
80

Can you look up the measured mortality at 4 ppm of O=C(N[C@H]1CCOc2ccccc21)c1cnc2c(-c3cccc(Cl)c3Cl)cccc2c1N1CCC(O)C1 (mixture of isomers) [Example 194] for me?
90

If you can, please state the reported mortality at 4 ppm value of CN(C)c1c(C(=O)N[C@H]2CCOc3ccccc32)cnc2c(-c3cc(Cl)ccc3F)cccc12 [Example 37] .
100

Give its mortality at 4 ppm value. Item: CC(C)c1c(C(=O)N[C@H]2CCOc3ccccc32)cnc2c(-c3cc(Cl)cc(Cl)c3)cccc12 [Example 359]
100

---

Biological target: C. elegans Slo-1a (Caenorhabditis elegans)
Sequence (Q95V25 whole entry): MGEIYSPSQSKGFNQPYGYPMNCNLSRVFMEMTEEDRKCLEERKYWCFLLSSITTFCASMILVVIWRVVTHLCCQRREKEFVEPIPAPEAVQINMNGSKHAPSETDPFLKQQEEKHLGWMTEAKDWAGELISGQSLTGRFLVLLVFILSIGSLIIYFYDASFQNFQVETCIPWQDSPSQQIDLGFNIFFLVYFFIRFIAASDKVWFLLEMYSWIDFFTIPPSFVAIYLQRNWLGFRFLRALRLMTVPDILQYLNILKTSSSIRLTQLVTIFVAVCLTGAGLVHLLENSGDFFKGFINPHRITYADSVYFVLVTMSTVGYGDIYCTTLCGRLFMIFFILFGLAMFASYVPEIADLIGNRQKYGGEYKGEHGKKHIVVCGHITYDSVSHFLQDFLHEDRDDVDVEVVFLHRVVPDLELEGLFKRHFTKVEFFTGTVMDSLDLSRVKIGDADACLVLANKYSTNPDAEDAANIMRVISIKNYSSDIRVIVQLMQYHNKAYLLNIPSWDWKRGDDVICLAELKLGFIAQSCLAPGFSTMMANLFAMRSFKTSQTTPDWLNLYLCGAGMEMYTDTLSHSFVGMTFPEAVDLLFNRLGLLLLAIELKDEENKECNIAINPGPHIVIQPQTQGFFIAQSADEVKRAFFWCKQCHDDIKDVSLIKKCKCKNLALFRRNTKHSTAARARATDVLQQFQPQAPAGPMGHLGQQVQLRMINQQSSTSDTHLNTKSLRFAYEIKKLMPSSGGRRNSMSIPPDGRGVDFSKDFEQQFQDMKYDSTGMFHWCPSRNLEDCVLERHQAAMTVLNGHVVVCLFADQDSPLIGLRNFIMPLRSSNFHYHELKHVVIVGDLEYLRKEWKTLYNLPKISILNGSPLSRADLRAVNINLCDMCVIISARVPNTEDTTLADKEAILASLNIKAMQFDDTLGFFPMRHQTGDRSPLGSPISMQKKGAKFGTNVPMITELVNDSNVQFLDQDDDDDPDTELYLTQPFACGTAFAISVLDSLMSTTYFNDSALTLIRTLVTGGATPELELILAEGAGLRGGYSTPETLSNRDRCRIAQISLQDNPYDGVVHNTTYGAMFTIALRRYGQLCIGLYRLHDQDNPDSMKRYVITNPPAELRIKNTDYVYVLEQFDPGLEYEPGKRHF
Settings: pE50 (negative decadic logarithm of EC50), CHO cells expressing C. elegans Slo-1a, voltage sensitive dye
quantity: EC50

Before answering, review these 5 worked examples.
{"compound": "O=C(N[C@H]1CCOc2ccccc21)c1cnc2c(-c3cccc(Cl)c3Cl)cccc2c1N1CCOCC1", "EC50": "< 3.16 nM"}
{"compound": "O=C(N[C@H]1CCOc2ccccc21)c1cnc2c(-c3cc(Cl)cc(Cl)c3)cccc2c1N1CC(F)(F)C1", "EC50": "3.16 to 31.6 nM"}
{"compound": "CN(C)c1c(C(=O)NC2COCc3c(F)cccc32)cnc2c(-c3cc(Cl)cc(Cl)c3)cccc12 (stereo not drawn)", "EC50": "31.6 to 316 nM"}
{"compound": "O=C(N[C@H]1CCOc2ccccc21)c1cnc2c(-c3cc(Cl)cc(C(F)(F)F)c3)cccc2c1N1CCC(O)C1 (mixture of isomers)", "EC50": "< 3.16 nM"}
{"compound": "Cc1ccc(C)c(-c2cccc3c(N(C)C)c(C(=O)N[C@H]4CCOc5ccccc54)cnc23)c1", "EC50": "3.16 to 31.6 nM"}

EC50 for "CC(C)(C)OC(=O)[C@@H]1CCCN1c1c(C(=O)N[C@H]2CCc3ccccc32)cnc2c(-c3cc(Cl)cc(Cl)c3)cccc12" ?
31.6 to 316 nM

So what does the record say about EC50 for CN(C)c1c(C(=O)NC2CCOc3ccc(Br)cc32)cnc2c(-c3cc(Cl)cc(Cl)c3)cccc12 (stereo not drawn) ?
316 to 5010 nM

---

Test: log P by HPLC on reversed phase columns (Method L0)
Conditions: HPLC on reversed phase columns, Method L0
Doc: threshold 4 (exclusive). Items with logP (Method L0) beneath it return y; others return n.

Given the entry "CN(CC(=O)OC(C)(C)C)c1c(C(=O)N[C@H]2CCOc3ccccc32)cnc2c(-c3cc(Cl)cc(Cl)c3)cccc12" , would its reported logP (Method L0) be below 4?
n

In the record for "CON(C)c1c(C(=O)N[C@H]2CCOc3ccccc32)cnc2c(-c3ccccc3Cl)cccc12" , is logP (Method L0) less than 4?
y

Record "O=C(N[C@H]1CCOc2ccccc21)c1cnc2c(-c3cc(Cl)cc(Cl)c3)cccc2c1N1CC2CC(C1)O2" : is its logP (Method L0) strictly below 4?
y

Is 4 strictly greater than the molecule's reported logP (Method L0)? molecule: "NCCNc1c(C(=O)N[C@H]2CCOc3ccccc32)cnc2c(-c3cc(Cl)cc(Cl)c3)cccc12"
y

---

Test: log P by HPLC on reversed phase columns (Method L0)
Conditions: HPLC on reversed phase columns, Method L0
# strict inequality: logP (Method L0)[a] < 2 yields 1 (yes), everything else yields 0 (no)

Below are worked cases with known answers.
{"molecule": "Nc1c(C(=O)N[C@H]2CCOc3ccccc32)cnc2c(-c3cc(Cl)cc(Cl)c3)cccc12 [Example 58]", "groupLabel": "0 (no)"}
{"molecule": "COC[C@H]1CCCN1c1c(C(=O)N[C@H]2CCc3ccccc32)cnc2c(-c3cc(Cl)cc(Cl)c3)cccc12 [Example 92]", "groupLabel": "0 (no)"}
{"molecule": "COC(=O)CNc1c(C(=O)N[C@H]2CCc3ccccc32)cnc2c(-c3cc(Cl)cc(Cl)c3)cccc12 [Example 128]", "groupLabel": "0 (no)"}
{"molecule": "COCCNc1c(C(=O)N[C@H]2CCc3ccccc32)cnc2c(-c3cc(Cl)cc(Cl)c3)cccc12 [Example 89]", "groupLabel": "0 (no)"}
{"molecule": "O=C(N[C@H]1CCc2ccccc21)c1cnc2c(-c3cc(Cl)cc(Cl)c3)cccc2c1NCCN1CCCC1 [Example 96]", "groupLabel": "1 (yes)"}

// switching to the query molecule
Report whether reported logP (Method L0)[a] is lower than 2 (strictly) for CC(=O)N1CCN(c2c(C(=O)N[C@H]3CCc4ccccc43)cnc3c(-c4cc(Cl)cc(Cl)c4)cccc23)CC1 [Example 116]
0 (no)
